B1: TPR t1 (parent)
chain: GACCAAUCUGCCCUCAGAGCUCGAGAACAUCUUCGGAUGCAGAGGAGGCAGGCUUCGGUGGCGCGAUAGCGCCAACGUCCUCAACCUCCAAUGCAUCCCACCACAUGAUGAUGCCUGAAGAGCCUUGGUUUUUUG

Variants of: B1
Assay: polymerase ribozyme fitness, log enrichment relative to wild type (log ratio); higher = more active; in vitro selection for triplet polymerase activity
So I've got a bunch of variants here, and I need their polymerase ribozyme fitness (log ratio) values.

Please go through the list and note polymerase ribozyme fitness (log ratio) for each variant.
1. C20U G36A G48C G113A
2. A2G C13U
3. G39A U112A
4. A6U C72A
5. C76G C102U C104A
6. C11U C12U C15U C53A C80U C88U C104U A111U A118G
7. G48A C56U C70A G93A

[A]
1. 0.28
2. 0.291
3. 0.854
4. 0.375
5. -1.03
6. -6.72
7. -5.28
